- Tested on: T. cruzi amastigotes
- test details: Activity against intracellular T. cruzi amastigotes
- Format: cell-based, Trypanosoma cruzi
- condition context: SI = IC50 cytotoxicity/IC50 against T. cruzi
Response field label takes 1 when Selectivity index is strictly below 4 and -1 in all other cases.

Solved cases (5 shown):
compound	system under test	assigned label
COc1cc2c(cc1OC)[C@@H]1C(=O)c3cc4ccoc4cc3O[C@@H]1CO2 (relative stereo) [Compound 32, erosone]	T. cruzi amastigotes	1
O=c1cc(-c2ccccc2)oc2c1ccc1occc12 [Compound 10, lanceolatin B]	T. cruzi amastigotes	-1
COc1ccc(-c2coc3c4c(cc(O)c3c2=O)OC(C)(C)C=C4)cc1O [Compound 41, 3′-hydroxy-4′-O-metyhlerrone]	T. cruzi amastigotes	-1
O=C1c2cc3ccoc3cc2O[C@@H]2COc3cc4c(cc3[C@]12O)OCO4 (relative stereo) [Compound 30, 12a-hydroxydolineone]	T. cruzi amastigotes	1
CC(=O)OC1C2c3c(ccc4c3OC(c3ccccc3)CC4=O)OC2OC1(C)C (single isomer, unassigned; (-)) [Compound 11, (−)-purpurin]	T. cruzi amastigotes	1

Report whether reported Selectivity index is lower than 4 (strictly) for CC1(C)C=Cc2c(ccc3c(=O)c(-c4cc(O)c5c(c4)OCO5)coc23)O1 [Compound 40, norisojamaicin] -1

What about CC(=O)OC(C1COc2ccc3c(c21)OC(c1ccc(O)cc1)CC3=O)C(C)(C)O (stereo not shown) [Compound 12] ? 1

###

- test details: Cytotoxicity assay: L-6 cells
- Format: cell-based
- condition context: rat skeletal myoblast (L6 cells); means of two independent assays
readout name: IC50 (µM)
The response must be a number in µM with no trailing unit.

Before answering, review these 6 worked examples.
molecule	value unit	assay result
COc1c2c(cc3ccoc13)C(=O)[C@@]1(O)c3cc4c(cc3OC[C@H]1O2)OCO4 (relative stereo) [Compound 29, 12a-hydroxypachyrhizone]	µM	125
COc1c(-c2coc3cc4c(cc3c2=O)C=CC(C)(C)O4)ccc2c1C=CC(C)(C)O2	µM	38.8
COc1cc2c(cc1-c1coc3cc4occc4cc3c1=O)OCO2 [Compound 28, dehydroneotenone]	µM	18.3
C=C(CO)C1Cc2cc3c(cc2O1)OCC1c2cc4c(cc2OC31)OCO4 (stereo not drawn) [Compound 18, (2′R)-4′-hydroxyemoroidocarpan]	µM	118
C=C(C)[C@H]1Cc2cc3c(cc2O1)OC[C@H]1c2cc4c(cc2O[C@@H]31)OCO4	µM	84.8
COc1cc2occ(-c3ccc4c(c3)OCO4)c(=O)c2cc1O	µM	186

Which IC50 is listed for CC(C)(O)C(OC(=O)C=Cc1ccccc1)C1COc2ccc3c(c21)OC(c1ccccc1)CC3=O (stereo not drawn) ? 81.6

Please answer likewise for COc1cc2c(cc1OC)[C@@H]1C(=O)c3cc4ccoc4cc3O[C@@H]1CO2 (relative stereo) 115

// query: COc1cc(O)ccc1C1COc2cc3c(cc2C1)CC(C(C)(C)O)O3 (stereo not drawn) 154

###

- test details: Cytotoxicity assay: L-6 cells
- Assay type: cell-based
- condition context: rat skeletal myoblast (L6 cells); means of two independent assays
readout name: IC50 (µM)
Give the number; µM is assumed, so skip it.

These solved cases illustrate the format of a correct answer.
compound	IC50 [µM]
COc1c(C(=O)/C=C(\O)c2ccccc2)ccc2occc12	73.6
Oc1ccc2c(c1)OC[C@H]1c3cc4c(cc3O[C@@H]21)OCO4	156
C=C(C)/C=C/c1c(OC)ccc2c1OC(c1ccccc1)CC2=O (stereo not drawn) [Compound 9, dehydroisoderricin]	95.4
COc1ccc(-c2coc3cc(OC)c(O)cc3c2=O)cc1	263
CC1(C)C=Cc2c(ccc(-c3coc4cc(O)ccc4c3=O)c2O)O1	186

Look up IC50: COc1ccc(-c2coc3c4c(cc(O)c3c2=O)OC(C)(C)C=C4)cc1O [Compound 41, 3′-hydroxy-4′-O-metyhlerrone] 55.7
